- Tested on: Human papillomavirus type 1a protein E7 (residues 44-93)
- METHOD_SUMMARY: HPV1a E7 fragment binders on microarrays, primary screen, biochemical, small-molecule microarray, residues 44-93, 635 nm fluorescence (AID 1108);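 also: E7 fragment applied at 1 µg/mL in TBST for 1 h at 4 C; score combines spot fluorescence with its signal to noise ratio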
- TEST_CONTEXT: small-molecule microarray binding, fluorescence 635 nm; higher = more signal
Assign YES whenever composite z-score does not fall below 1; assign NO whenever it does.

Worked set:
# COMPOUND, CLASSIFICATION
data = [
    ("COc1ccc(C(=O)Nc2cccc(CN3C(=O)[C@]4(O[C@H](CC(=O)N5CCC[C@H]5CO)[C@@H]([Si](C)(C)c5ccc(OC)cc5)[C@@H]4C)c4ccccc43)c2)cc1", "YES"),
    ("O=C(NCc1ccccc1)[C@]1(CCS(=O)(=O)c2ccccc2)N=C(c2ccc(OCCCO)cc2)O[C@@H]1c1ccccc1", "YES"),
]

Please examine the following record next.
Check the entry COCCCNC(=O)[C@@]1(CCC(=O)OC(C)(C)C)N=C(c2ccc(OCCCO)cc2)O[C@H]1c1ccccc1CN=[N+]=[N-] : does composite z-score equal or exceed 1?
YES
